- Tgt: HIV protease (Human immunodeficiency virus type 1 group M subtype B, UniProt P04585)
- Construct: plasmid containing HIV protease under the control of an inducible T7 promoter; made in house; host or cells: E. coli (inclusion bodies, T7 promoter)
- Test Summary: biochemical
- Parameters: species or system HIV-1
- Particulars: Ki
pKi: −log10 of the molar value.
Entries annotated with measured pKi
Quantity Measured: pKi

compound="O=C1OC2C(O1)C(Cc1ccccc1)N(CC1CC1)C(=O)N(CC1CC1)C2Cc1ccccc1 (stereo not drawn)" result="6.00 to 8.00"
compound="N#CN=C1N(Cc2cccc(C#N)c2)C(Cc2ccccc2)C(O)C(O)C(Cc2ccccc2)N1Cc1cccc(C#N)c1 (stereo not drawn)" result="6.00 to 8.00"
compound=CC(=O)c1cccc(CN2C(=O)N(Cc3cccc(C(C)=O)c3)[C@H](Cc3ccccc3)[C@H](O)[C@H]2CCc2ccccc2)c1 result="> 8.00"
